// provenance: ChEMBL document CHEMBL1140498

# Test system: NSO
# assayName: Growth inhibition of MCSF-independent mouse NSO cells
Recorded IC50 values for a group of compounds are listed next.

NC(=O)c1cnc2cc(-c3ccncc3)ccc2c1Nc1ccc(F)c(F)c1 | > 32 µM
CCOc1ccc(Nc2c(C(N)=O)cnc3cc(-c4ccncc4)ccc23)cc1F | > 16 µM
Cc1ccc(Nc2c(C(N)=O)cnc3cc(-c4ccncc4)ccc23)cc1Cl | > 32 µM

# next compound below
# lookup: IC50 of `Cc1ccc(Nc2c(C(N)=O)cnc3cc(-c4ccncc4)ccc23)cc1C` > 50 µM
